Target: Androgen Receptor (AR) (Homo sapiens, UniProt P10275, T878A)
Construct: cell based immuno-fluorescence assay using the LNCaP prostate epithelial cell line; endogenous in cells; host or cells: LNCaP clone FGC (ATCC CRL-1740)
Sequence (P10275 whole entry T878A): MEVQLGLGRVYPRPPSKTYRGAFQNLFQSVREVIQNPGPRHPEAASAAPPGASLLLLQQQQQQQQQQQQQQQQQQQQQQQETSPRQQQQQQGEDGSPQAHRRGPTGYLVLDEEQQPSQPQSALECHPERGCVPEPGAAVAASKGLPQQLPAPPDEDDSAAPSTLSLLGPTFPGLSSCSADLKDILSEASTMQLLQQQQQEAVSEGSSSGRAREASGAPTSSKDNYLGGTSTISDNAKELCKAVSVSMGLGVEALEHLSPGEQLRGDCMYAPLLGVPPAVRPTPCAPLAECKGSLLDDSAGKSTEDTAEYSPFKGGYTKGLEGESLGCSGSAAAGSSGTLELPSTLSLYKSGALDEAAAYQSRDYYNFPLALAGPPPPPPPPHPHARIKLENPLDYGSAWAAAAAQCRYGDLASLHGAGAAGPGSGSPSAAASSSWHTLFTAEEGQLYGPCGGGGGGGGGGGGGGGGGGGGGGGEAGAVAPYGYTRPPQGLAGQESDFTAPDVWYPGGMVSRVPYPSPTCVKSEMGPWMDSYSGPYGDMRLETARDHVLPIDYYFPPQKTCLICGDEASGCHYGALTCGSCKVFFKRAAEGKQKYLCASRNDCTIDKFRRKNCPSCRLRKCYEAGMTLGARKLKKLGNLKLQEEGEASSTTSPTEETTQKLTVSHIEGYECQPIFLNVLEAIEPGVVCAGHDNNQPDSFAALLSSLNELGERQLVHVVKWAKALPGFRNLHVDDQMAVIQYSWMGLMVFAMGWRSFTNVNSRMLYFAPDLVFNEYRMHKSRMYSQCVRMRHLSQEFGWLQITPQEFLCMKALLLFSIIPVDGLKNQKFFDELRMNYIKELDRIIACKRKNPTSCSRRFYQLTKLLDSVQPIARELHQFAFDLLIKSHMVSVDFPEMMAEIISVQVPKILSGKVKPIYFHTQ
Assay: LNCaP Androgen Receptor Down-regulation Cell Assay (immunofluorescence end point)
Assay type: cell-based
Conditions: LNCaP prostate carcinoma cells, compound incubation 20-22 hours, 50% reduction of the AR signal; read-out: Androgen Receptor Down-regulation Assay (a) IC50/μM
observed-property: DC50 (µM)
One number for each entry, in µM.

compound: Cn1cc(CN2CCN(c3ccc4nnc(C(F)(F)F)n4n3)CC2)c2ccccc21 [Example 71]
assayed-system: Androgen Receptor (AR) (Homo sapiens, UniProt P10275, T878A)
unit: µM
DC50: 1.4

compound: FC(F)(F)c1nnc2ccc(N3CCN(Cc4ccco4)CC3)nn12 [Example 79]
assayed-system: Androgen Receptor (AR) (Homo sapiens, UniProt P10275, T878A)
unit: µM
DC50: 2.4

compound: CN1CCC(Oc2cccc(C3CCN(c4ccc5nnc(C(F)(F)F)n5n4)CC3)c2)CC1 [Example 677]
assayed-system: Androgen Receptor (AR) (Homo sapiens, UniProt P10275, T878A)
unit: µM
DC50: 4.5

compound: FC(F)(F)c1nnc2ccc(N3CCN(Cc4cccc(Br)c4)CC3)nn12 [Example 118]
assayed-system: Androgen Receptor (AR) (Homo sapiens, UniProt P10275, T878A)
unit: µM
DC50: 0.3

compound: FC(F)(F)Sc1cccc(CN2CCN(c3ccc4nnc(C(F)(F)F)n4n3)CC2)c1 [Example 116]
assayed-system: Androgen Receptor (AR) (Homo sapiens, UniProt P10275, T878A)
unit: µM
DC50: 1.1

compound: Fc1ccc(CN2CC3CN(c4ccc5nnc(C(F)(F)F)n5n4)CC3C2)cc1 (stereo not drawn) [Example 203]
assayed-system: Androgen Receptor (AR) (Homo sapiens, UniProt P10275, T878A)
unit: µM
DC50: 1.7

compound: Fc1ccc2c(CN3CCN(c4ccc5nnc(C(F)F)n5n4)CC3)c[nH]c2c1 [Example 292]
assayed-system: Androgen Receptor (AR) (Homo sapiens, UniProt P10275, T878A)
unit: µM
DC50: 7

compound: COc1ccccc1C1(O)CCN(c2ccc3nnc(C(F)(F)F)n3n2)CC1 [Example 314]
assayed-system: Androgen Receptor (AR) (Homo sapiens, UniProt P10275, T878A)
unit: µM
DC50: 4.6

Continue with the next compound.
The compound listed as FC(F)(Cl)c1nnc2ccc(N3CCN(Cc4ccc(Br)cc4)CC3)nn12 [Example 348] has a reported DC50 of 1
